Target: PDZRN4_1, Q6ZMN7
Sequence (Q6ZMN7 213-318): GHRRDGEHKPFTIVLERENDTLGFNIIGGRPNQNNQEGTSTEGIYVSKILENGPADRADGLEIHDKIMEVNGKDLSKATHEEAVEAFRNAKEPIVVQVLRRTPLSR
Assay: holdup assay
Design: key: below the threshold = too weak to quantify, mostly under pKd 3.1 to 4
Settings: plain residues with an end cap or a label only (N-terminal biotin on a linker: ado-ado)
endpointLabel: pKd

Solved entries:
| binder | pKd |
| --- | --- |
| QQGLLPHSSC [TYRO3, Q06418] | below the threshold |
| TFSRRPKTRV [CD226, Q15762] | below the threshold |
| IGHEDLETAV [DGKI, O75912] | 4.7 |
| FVFESRKEIL [TBPL1, P62380] | below the threshold |
| FHSIKQSTAV [CRHR1, P34998] | 4.1 |

Given the entry GSQSQVETEA [FKBP4, Q02790] , report its measured pKd. below the threshold

Given STYCDYTIEI [FAM71C, Q8NEG0] , state its recorded pKd. below the threshold

Report pKd for KIEDVEITLV [FCHSD2, O94868] please. 3.64

Which value of pKd has been reported for KEKASTETEC [TRPM1, Q7Z4N2] in the records? below the threshold

What pKd value was documented for this binder, HLSTRQGTCV [ATRNL1, Q5VV63] ? 3.76
